- Test system: TK-10
- assay.remarks: NCI tumour cell line growth inhibition, 48 h
The source made the active and inactive calls. No stated cut-off is given here; in the data, active = GI50 up to about 1.1 µM and inactive = higher.
Listed molecules paired with reported GI50

- molecule: "O=C(CCCNC(=O)OCc1ccccc1)OCc1ccc2c(c1)C(=O)c1ccccc1C2=O"
  GI50: "34.8 µM (inactive)"
- molecule: "COC(=O)[C@@H]1c2[nH]c3ccccc3c2C[C@@H]2c3ccccc3NC(=O)[C@@H]21"
  GI50: "> 80.4 µM (inactive)"
- molecule: "CO[C@H]1O[C@@H]2CO[C@@H](c3ccccc3)O[C@H]2C[C@]12CCC/C=C\\CO2"
  GI50: "22.6 µM (inactive)"
- molecule: "Cc1ccc([N+](=O)[O-])c2c(NCCC[N+](C)(C)[O-])c3ccccc3nc12"
  GI50: "11.6 µM (inactive)"
- molecule: "CCC12C=CCN3CCC4(C(=C(C(=O)OC)[C@@H]1O)Nc1ccccc14)C32 (stereo partly specified)"
  GI50: "2.24 µM (inactive)"
- molecule: "CC(C)OC(=O)NNc1cccc(Cl)c1"
  GI50: "> 100 µM (inactive)"
- molecule: "O=C(Nc1ccccc1)N1N=C(c2ccccc2)C1c1ccccc1 (stereo unspecified)"
  GI50: "36.1 µM (inactive)"
- molecule: "NC(=O)c1c([N+](=O)[O-])cc(C(F)(F)F)cc1[N+](=O)[O-]"
  GI50: "> 100 µM (inactive)"
- molecule: "CC(Oc1ccc(OCC2CCCCC2)cc1)C(=O)O (stereo unspecified)"
  GI50: "> 100 µM (inactive)"
- molecule: "O=C1C(c2ccc(C3=[N+]([O-])c4cc([N+](=O)[O-])ccc4C3=O)cc2)=[N+]([O-])c2cc([N+](=O)[O-])ccc21"
  GI50: "> 10 µM (inactive)"
- molecule: "O=P12N(CCN1c1ccccc1)CCN2c1ccccc1"
  GI50: "> 100 µM (inactive)"
- molecule: "Cc1ccc(N2C(=O)C3C=CC(n4[nH]c(=O)n(Cc5ccccc5)c4=O)CC3C2=O)cc1 (stereo unspecified)"
  GI50: "> 100 µM (inactive)"
- molecule: "CC(=O)OCSc1ncnc2c1ncn2CN1CCOCC1"
  GI50: "7.05 µM (inactive)"
- molecule: "CCCOC(=O)c1cc(O)c(O)c(O)c1 [PROPYL GALLATE]"
  GI50: "> 100 µM (inactive)"
- molecule: "O=C(CC1(O)C(=O)Nc2ccccc21)c1cccc(O)c1 (stereo unspecified)"
  GI50: "> 100 µM (inactive)"
- molecule: "COc1ccc(C2C(N)=NCC2c2ccccn2)cc1 (stereo unspecified)"
  GI50: "> 100 µM (inactive)"
- molecule: "N/N=C1\\C(=O)N(C2CCCCCC2)C(=O)C1C(=O)NC1CCCCCC1 (stereo unspecified)"
  GI50: "> 10 µM (inactive)"
- molecule: "N#Cc1c(-c2ccccc2)c(C#N)c(=S)n(C2OC(CO)C(O)C(O)C2O)c1O (stereo unspecified)"
  GI50: "> 100 µM (inactive)"
- molecule: "CC1=NN(c2nc(N)nc(/C(C#N)=C\\c3ccc(-c4ccc([N+](=O)[O-])cc4)o3)n2)C(C)(C)C1"
  GI50: "> 100 µM (inactive)"
- molecule: "Cc1c(-c2coc(-c3ccc(Cl)cc3)n2)c(=O)n(-c2ccccc2)n1C"
  GI50: "> 100 µM (inactive)"
- molecule: "COc1ccc(Nc2nc(N)c(C(=O)c3ccc(Cl)cc3)s2)cc1"
  GI50: "3.61 µM (inactive)"
- molecule: "COc1ccc(C(=O)N/N=C/c2c(C)n(C)n(-c3ccccc3)c2=O)cc1"
  GI50: "> 100 µM (inactive)"
- molecule: "COC(COC(N)=O)C1=C(N2CC2)C(=O)C(C)=C(N2CC2)C1=O (stereo unspecified) [CARBOQUONE]"
  GI50: "0.239 µM (active)"
- molecule: "CC(C)C[C@H](NC(=O)[C@H](Cc1cccc2ccccc12)NC(=O)N1CCOCC1)B(O)O"
  GI50: "< 0.01 µM (active)"
- molecule: "COc1cccc2c1C(=O)c1c(O)c3c(c(O)c1C2=O)C[C@@](O)(C(=O)CO)C[C@@H]3OC1CC(N)C(OC)C(C)O1 (stereo partly specified)"
  GI50: "0.838 µM (active)"
- molecule: "COc1cc(C2c3cc4c(c(O)c3C(=O)C3CCC(=O)N32)OCO4)cc(OC)c1OC (stereo unspecified)"
  GI50: "67.5 µM (inactive)"
- molecule: "CN1CCC(O)(C(C)(C)C)CC1"
  GI50: "> 100 µM (inactive)"
- molecule: "C=Cc1cc2c(cc1O)CC[C@@H]1[C@@H]2CC[C@]2(C)[C@@H](O)CC[C@@H]12"
  GI50: "12.2 µM (inactive)"
- molecule: "Cc1ccc(-n2cc(/C(N)=N/O)c3ccccc3c2=O)cc1"
  GI50: "> 100 µM (inactive)"
- molecule: "CS(=O)(=O)OC1CCN(C2(c3cccc(O)c3)CCCCC2)CC1"
  GI50: "> 100 µM (inactive)"
- molecule: "N=C(N)N1CCC(N2CCOCC2)CC1"
  GI50: "> 100 µM (inactive)"
- molecule: "O=C([O-])C[n+]1ccccc1.c1ccncc1"
  GI50: "> 100 µM (inactive)"
- molecule: "Cc1cc2occ(-c3ccc(Cl)cc3)c2c(=O)o1"
  GI50: "> 100 µM (inactive)"
- molecule: "O=C1CC(O)c2c(Cl)sc(Cl)c21 (stereo unspecified)"
  GI50: "15.9 µM (inactive)"
- molecule: "O=C1c2cccc([N+](=O)[O-])c2C(=O)c2nccnc21"
  GI50: "2.06 µM (inactive)"
- molecule: "CC1=CCC[C@@](C)(O)[C@@H]2C[C@H]3C(CSc4ccccc4)C(=O)O[C@H]3[C@@H](O2)[C@H](C)CCC1 (stereo partly specified)"
  GI50: "17.3 µM (inactive)"
- molecule: "O=C1c2cccc3cccc(c23)C(=O)N1CCCNOCCONCCCN1C(=O)c2cccc3cccc(c23)C1=O"
  GI50: "> 100 µM (inactive)"
- molecule: "COC(=O)C1(Cc2ccc3c(c2)CCC3)Cc2cc3c(cc2C1)CCC3"
  GI50: "> 100 µM (inactive)"
- molecule: "CO/N=C1/c2sccc2[C@H](NC(=O)CNC(=O)OC(C)(C)C)[C@@H]1O"
  GI50: "> 100 µM (inactive)"
- molecule: "COC1=CC(=O)c2c(cc(COP(=O)(OCC3OC(n4cc(F)c(=O)[nH]c4=O)CC3O)N(C)CCCCCl)n2C)C1=O (stereo unspecified)"
  GI50: "1.81 µM (inactive)"
- molecule: "CN1C(=O)CN2C(Cl)(Cl)C2(c2ccccc2)c2cc(Cl)ccc21 (stereo unspecified)"
  GI50: "> 100 µM (inactive)"
